B1: Azoarcus group I ribozyme (parent)
chain: GUGCCUUGCGCCGGGAAACCACGCAAGGGAUGGUGUCAAAUUCGGCGAAACCUAAGCGCCCGCCCGGGCGUAUGGCAACGCCGAGCCAAGCUUCGGCGCCUGCGCCGAUGAAGGUGUAGAGACUAGACGGCACCCACCUAAGGCAAACGCUAUGGUGAAGGCAUAGUCCAGGGAGUGGCGAAAGUCACACAAACCGG

- Variants of: B1
- Assay Info: reverse-splicing fitness (ratio to wild type); higher = more active; in vitro selection; Mg2+ level not given
Please note: label 1 applies when reverse-splicing fitness is 0.01 or greater, and label 0 applies otherwise.

Exercise: Is reported reverse-splicing fitness greater than or equal to 0.01 here: C82A A111G A145U C150U C169U U176C
Key: label 1

Exercise: Is reverse-splicing fitness for C82A A111C A120U A145U C150U U176G at or above 0.01?
Key: label 0

Exercise: In plain terms: is recorded reverse-splicing fitness at least 0.01 for C82G A111G A145U C150G C169G U176A ?
Key: label 0

Exercise: Given the entry C82U A111U A120U C150U , answer whether its reverse-splicing fitness meets or surpasses 0.01.
Key: label 1

Exercise: Confirm if reverse-splicing fitness reported for the variant C82G A120U A145G C150A U176A is 0.01 or above.
Key: label 1

Exercise: Is the recorded value of reverse-splicing fitness equal to or greater than 0.01 for this variant? C82A A111C A145G C169A U176C
Key: label 1

Exercise: Hi team, for C82A A111G A120G C150G C169A U176A , is the recorded reverse-splicing fitness at or above 0.01?
Key: label 1

Exercise: Confirm if reverse-splicing fitness reported for the variant C82G A111U A145C C150U C169U U176A is 0.01 or above.
Key: label 1

Exercise: Form field: reverse-splicing fitness at least 0.01? Entry: C82U A111G A120C C150G C169A U176C
Key: label 1

Exercise: Hi team, for A111U A120G A145U C150U C169A , is the recorded reverse-splicing fitness at or above 0.01?
Key: label 1

Exercise: Textbook exercise: given the entry C82U A120G A145U C169G U176C , state whether its reverse-splicing fitness is greater than or equal to 0.01.
Key: label 1

Exercise: Textbook exercise: given the entry C82U A111G A120C A145C C150A C169U U176G , state whether its reverse-splicing fitness is greater than or equal to 0.01.
Key: label 0

Exercise: Does the reported reverse-splicing fitness for A120C C169G fall at or above the 0.01 mark?
Key: label 1

Exercise: Reported reverse-splicing fitness reaches at least 0.01 for A111U A120C A145G C150U C169U U176C ?
Key: label 1

Exercise: Please tell me: is the variant C82A A145G C150G C169A U176G at or over 0.01 in terms of reverse-splicing fitness?
Key: label 0

Exercise: Reported reverse-splicing fitness reaches at least 0.01 for C82U A111C A120C C150U C169A U176C ?
Key: label 1

Exercise: Decide: reverse-splicing fitness of A111G C150A U176G >= 0.01?
Key: label 1

Exercise: Does reverse-splicing fitness meet or surpass 0.01 for A111G A120U A145U C150U U176A ?
Key: label 1

Exercise: Kindly determine if reverse-splicing fitness recorded for C82A A111G A120G A145C C150U C169G U176A is above or exactly 0.01.
Key: label 1

Exercise: I'd appreciate it if you could say whether A120C A145C C150U C169G has reverse-splicing fitness at least equal to 0.01.
Key: label 1

Exercise: Kindly determine if reverse-splicing fitness recorded for C82U A111C A120U A145U U176A is above or exactly 0.01.
Key: label 0

Exercise: API: above_or_equal(metric=reverse-splicing fitness, cutoff=0.01) for item C82G A111G A145U C150G C169A
Key: label 0

Exercise: Hi team, for C82G A111G A120C A145C C169A U176C , is the recorded reverse-splicing fitness at or above 0.01?
Key: label 1

Exercise: Identify whether the reported reverse-splicing fitness of the following variant is 0.01 or greater: A145G U176A
Key: label 1

Exercise: Test whether the variant C82A A111U C150A records reverse-splicing fitness of 0.01 or higher.
Key: label 1

Exercise: Identify whether the reported reverse-splicing fitness of the following variant is 0.01 or greater: C82G A111U A145G C150G C169G U176G
Key: label 0

Exercise: Does the variant A111C A120U C150U have recorded reverse-splicing fitness that is 0.01 or more?
Key: label 1

Exercise: Please tell me: is the variant C82U A111C A145C C150U U176C at or over 0.01 in terms of reverse-splicing fitness?
Key: label 1

Exercise: Dear colleague, could you confirm whether A145C C150U U176G has reverse-splicing fitness at or above 0.01?
Key: label 1

Exercise: Exam item: decide whether the reported reverse-splicing fitness for C82G A145U C150U C169A U176G is at least 0.01.
Key: label 0

Exercise: Tell me whether reverse-splicing fitness is at least 0.01 here: A120U A145U U176A
Key: label 1

Exercise: # check: reverse-splicing fitness of C82A A111G A120C A145C C150U C169U U176A is greater than or equal to 0.01
Key: label 1

Exercise: I'd appreciate it if you could say whether C150A C169G has reverse-splicing fitness at least equal to 0.01.
Key: label 1

Exercise: Does the reported reverse-splicing fitness for C82G A120G A145G C169G U176A fall at or above the 0.01 mark?
Key: label 1

Exercise: Exam item: decide whether the reported reverse-splicing fitness for C82U A111C A120U A145C C150A C169U U176A is at least 0.01.
Key: label 0

Exercise: Does the reported reverse-splicing fitness for C82U A111C A120U A145G C150U C169G fall at or above the 0.01 mark?
Key: label 0
